Recorded abundance fitness by entry
B1: DnaJ homolog subfamily C member 5, residues 16 to 77; numbered along this chain, Q9H3Z4 (parent)
chain: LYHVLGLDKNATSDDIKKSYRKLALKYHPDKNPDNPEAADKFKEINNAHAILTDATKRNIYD

- Variants of: B1
- experimental details: abundance fitness (aPCA) (normalised: wild type 0, dead -1); higher = more abundant; growth selection in yeast, the domain comes from the species named
- experimental context: Homo sapiens
The reply should be a number, written without any unit.

A55Y = -0.423
N59W = -0.396
I45N = -0.381
A55N = -0.117
H49W = -0.153
A24P = -0.449
L7T = -0.721
A48F = -1.72
E44Y = -0.742
I16N = -0.615

--- query ---
Given the entry "L5K" , report its measured abundance fitness.
-0.444

All values here come from the Human Domainome abundance scans (Beltran et al. 2025).
